src = the supplement of paper PMC10567573

B1: MYBL2 (parent)
chain: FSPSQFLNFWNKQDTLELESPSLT

# Variants of: B1
# Experiment Notes: protein stability index of a GFP-peptide fusion (GPS, HEK-293T) (PSI 1-6); higher = more stable;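 also: lentivirally expressed fusions sorted by FACS into six bins by GFP to DsRed ratio, PSI derived from sequencing read proportions per bin multiplied by bin number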
# Measurement Context: c terminus: a fixed tail appended
Experimental Endpoint: protein stability index

# Sequence Input, protein stability index
data = [
    ("FSPSQFLNFWNTQDTLELESPSLT [K12T]", 2.59),
]

Task item: Data request, read-out protein stability index, for FSPSQELNFWNKQDTLELESPSLT [F6E]
Reply: 4

Task item: Data request, read-out protein stability index, for WSPSQFLNFWNKQDTLELESPSLT [F1W]
Reply: 2.73
